Every entry's value here was drawn from PubChem BioAssay AID2060356.

Tested on: PDC tumor spheroids with HUVEC/MSC, viability;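 also: spheroids exposed to drugs for seven days before readout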
Assay: Anticancer human tumor 439559-082-T-J2-PDC patient-derived colon adenocarcinoma cell line growth inhibition [TAK]
Details: second compound 0.3 µM; first compound 0.316 µM; active compounds read low
Experimental: Combinatorial screen of targeted agents with TAK-243 and ipatasertib in multi-cell type tumor spheroids […] Compounds. […] If the clinical Cmax for an agent had not been determined, the highest concentration tested was 10 microM. NCI60 Cell Culture. […] The optimal seeding densities for each of the cell lines at each time point assessed were determined prior to performing the concentration response studies. […]
Exercise: for every item that follows, state its recorded viability, T/C.
Give the quantity in %, number only.

Form field: reported viability, T/C of CCCS(=O)(=O)Nc1ccc(F)c(C(=O)c2c[nH]c3ncc(-c4ccc(Cl)cc4)cc23)c1F + CC(C)NCC(C(=O)N1CCN(c2ncnc3c2C(C)CC3O)CC1)c1ccc(Cl)cc1
117

Form field: reported viability, T/C of COc1c(OCCCN2CCOCC2)ccc2c3n(c(=NC(=O)c4cnc(N)nc4)nc12)CCN3 + CC(C)NCC(C(=O)N1CCN(c2ncnc3c2C(C)CC3O)CC1)c1ccc(Cl)cc1
61.8

Form field: reported viability, T/C of CC(C)(C)c1nc(-c2cccc(NS(=O)(=O)c3c(F)cccc3F)c2F)c(-c2ccnc(N)n2)s1 + CC(C)NCC(C(=O)N1CCN(c2ncnc3c2C(C)CC3O)CC1)c1ccc(Cl)cc1
106

Form field: reported viability, T/C of Cc1nc(NC(=O)N2CCCC2C(N)=O)sc1-c1ccnc(C(C)(C)C(F)(F)F)c1 (centres undefined) + CC(C)NCC(C(=O)N1CCN(c2ncnc3c2C(C)CC3O)CC1)c1ccc(Cl)cc1
85
